sequences and their reported shrunken log2 fold change
tested on: Escherichia coli TOP10; test: shrunken log2 fold change of peptide-encoding DNA abundance (4.5 h post-induction vs induction); higher = less antimicrobial activity (less host growth inhibition); settings: time post-induction: 4.5 h; library: site-saturation at positions 5, 18, 19, 20

Completed entries (count: 2):
>>> result("RRIRLRPPRLPRPRPRPRPYPRP")
-0.0267
>>> result("RRIRGRPPRLPRPRPRPRDSPRP")
0.257

In: GET /values?readout=shrunken log2 fold change&item= RRIRKRPPRLPRPRPRPFFIPRP
Out: -0.061

In: Tell me the measured shrunken log2 fold change of RRIRQRPPRLPRPRPRPVSLPRP , please.
Out: -0.131

In: Look up shrunken log2 fold change for this sequence: RRIRFRPPRLPRPRPRPVNEPRP
Out: -0.288

In: // lookup shrunken log2 fold change for RRIRQRPPRLPRPRPRPCAQPRP
Out: 0.308

In: Value lookup for shrunken log2 fold change; key = RRIRWRPPRLPRPRPRPQKCPRP
Out: -0.382

In: Which shrunken log2 fold change is reported for this sequence? RRIRVRPPRLPRPRPRPRYVPRP
Out: -0.218

====

system: Escherichia coli TOP10; assay: shrunken log2 fold change of peptide-encoding DNA abundance (4.5 h post-induction vs induction); higher = less antimicrobial activity (less host growth inhibition); conditions: time post-induction: 4.5 h; library: site-saturation at positions 5, 18, 19, 20
REPORTED_ENDPOINT: shrunken log2 fold change

>>> result("RRIRDRPPRLPRPRPRPMKGPRP")
0.0395

In: Param item = RRIRQRPPRLPRPRPRPKNHPRP ; retrieve measured shrunken log2 fold change.
Out: -0.23

In: Name the reported shrunken log2 fold change value associated with the sequence RRIRERPPRLPRPRPRPAVTPRP
Out: -0.13

In: Which shrunken log2 fold change is listed for RRIRARPPRLPRPRPRPRCCPRP ?
Out: 0.582

In: Dear colleague, I am looking for the recorded shrunken log2 fold change of the following sequence: RRIRDRPPRLPRPRPRPHCVPRP
Out: 0.017

In: So what does the record say about shrunken log2 fold change for RRIRTRPPRLPRPRPRPGRWPRP ?
Out: 0.393

In: Entry RRIRKRPPRLPRPRPRPDAFPRP : reported shrunken log2 fold change = ?
Out: 0.00489

In: // lookup shrunken log2 fold change for RRIRKRPPRLPRPRPRPEPNPRP
Out: 0.737

In: Reported shrunken log2 fold change for RRIRCRPPRLPRPRPRPCRCPRP : what is it?
Out: -0.389

In: Item RRIRERPPRLPRPRPRPFWRPRP has what recorded shrunken log2 fold change?
Out: 0.0935

====

tested on: Escherichia coli TOP10; assay: shrunken log2 fold change of peptide-encoding DNA abundance (4.5 h post-induction vs induction); higher = less antimicrobial activity (less host growth inhibition); conditions: time post-induction: 4.5 h; library: site-saturation at positions 5, 18, 19, 20
Consider the following sequences and their measured shrunken log2 fold change readings.

Below are worked cases with known answers.
>>> result("RRIRCRPPRLPRPRPRPYQKPRP")
-0.0372
>>> result("RRIRWRPPRLPRPRPRPFLQPRP")
-0.499
>>> result("RRIRRRPPRLPRPRPRPRVVPRP")
0.215
>>> result("RRIRHRPPRLPRPRPRPLQRPRP")
-0.187
>>> result("RRIRCRPPRLPRPRPRPVKGPRP")
-0.261

In: Entry RRIRPRPPRLPRPRPRPDPLPRP has what shrunken log2 fold change?
Out: -0.379

In: Requested field: shrunken log2 fold change. Item: RRIRMRPPRLPRPRPRPADMPRP
Out: 0.728

In: I'd like to know its shrunken log2 fold change. The sequence in question is RRIRSRPPRLPRPRPRPAMRPRP
Out: 0.588

====

test system: Escherichia coli TOP10; assay: shrunken log2 fold change of peptide-encoding DNA abundance (4.5 h post-induction vs induction); higher = less antimicrobial activity (less host growth inhibition); details: time post-induction: 4.5 h; library: site-saturation at positions 5, 18, 19, 20
REPORTED_ENDPOINT: shrunken log2 fold change

>>> result("RRIRKRPPRLPRPRPRPRGQPRP")
0.648

In: Please give the measured shrunken log2 fold change for this sequence: RRIRCRPPRLPRPRPRPYTFPRP
Out: -0.883

In: Name the reported shrunken log2 fold change value associated with the sequence RRIRHRPPRLPRPRPRPFDNPRP
Out: -0.0137

In: If you can, please state the reported shrunken log2 fold change value of RRIRARPPRLPRPRPRPSVNPRP .
Out: -0.383

In: Any idea what its shrunken log2 fold change is? The sequence is RRIRKRPPRLPRPRPRPAFQPRP
Out: 0.107

In: Which shrunken log2 fold change reading was recorded for the sequence RRIRVRPPRLPRPRPRPDMMPRP ?
Out: 0.0644

In: Looking for the measured shrunken log2 fold change of RRIRARPPRLPRPRPRPSPEPRP , can you help?
Out: 0.41

In: If you can, please state the reported shrunken log2 fold change value of RRIRIRPPRLPRPRPRPTIYPRP .
Out: -0.865

In: // returns reported shrunken log2 fold change for input RRIRKRPPRLPRPRPRPHKMPRP
Out: 0.105

In: Suppose we examine the sequence RRIRTRPPRLPRPRPRPRFTPRP ; what shrunken log2 fold change value has been reported?
Out: 0.0679

====

tested on: Escherichia coli TOP10; experiment: shrunken log2 fold change of peptide-encoding DNA abundance (4.5 h post-induction vs induction); higher = less antimicrobial activity (less host growth inhibition); conditions: time post-induction: 4.5 h; library: site-saturation at positions 5, 18, 19, 20
Known shrunken log2 fold change of a selection of sequences
// print number alone

Examples with their reported shrunken log2 fold change follow.
>>> quantitative_readout("RRIRWRPPRLPRPRPRPRKLPRP")
0.133
>>> quantitative_readout("RRIRPRPPRLPRPRPRPGGMPRP")
0.189
>>> quantitative_readout("RRIRQRPPRLPRPRPRPADVPRP")
0.0705
>>> quantitative_readout("RRIRMRPPRLPRPRPRPILLPRP")
-0.0378
>>> quantitative_readout("RRIRNRPPRLPRPRPRPVRIPRP")
0.0513

In: Query: shrunken log2 fold change; subject: RRIRQRPPRLPRPRPRPMKWPRP
Out: 0.273

====

tested on: Escherichia coli TOP10; experiment: shrunken log2 fold change of peptide-encoding DNA abundance (4.5 h post-induction vs induction); higher = less antimicrobial activity (less host growth inhibition); conditions: time post-induction: 4.5 h; library: site-saturation at positions 5, 18, 19, 20
Entries and their shrunken log2 fold change
API note: the answer field is a bare number with no unit suffix.

Look over these answered cases.
>>> quantitative_readout("RRIRDRPPRLPRPRPRPDCLPRP")
0.779
>>> quantitative_readout("RRIRPRPPRLPRPRPRPGKWPRP")
0.118
>>> quantitative_readout("RRIRFRPPRLPRPRPRPSFNPRP")
-0.792
>>> quantitative_readout("RRIRHRPPRLPRPRPRPLAIPRP")
-0.346
>>> quantitative_readout("RRIRWRPPRLPRPRPRPHCQPRP")
-0.102

In: Please provide the recorded shrunken log2 fold change for RRIRERPPRLPRPRPRPAWVPRP , tested on Escherichia coli TOP10.
Out: 0.174

In: Lab note: need shrunken log2 fold change for RRIRDRPPRLPRPRPRPHARPRP on Escherichia coli TOP10, anyone have it?
Out: 0.0493

====

system: Escherichia coli TOP10; assay: shrunken log2 fold change of peptide-encoding DNA abundance (4.5 h post-induction vs induction); higher = less antimicrobial activity (less host growth inhibition); conditions: time post-induction: 4.5 h; library: site-saturation at positions 5, 18, 19, 20;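 note: peptides expressed intracellularly from a pBAD plasmid library in pooled LB shake-flask culture, induced with 0.3% L-arabinose, DNA abundance read by NGS, three biological replicates, DESeq2 with apeglm shrinkage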
Where shrunken log2 fold change equals or exceeds -0.02, the correct label is class 1; where it does not, the label is class 0.

>>> cat("RRIRLRPPRLPRPRPRPQFCPRP")
"class 0"
>>> cat("RRIRKRPPRLPRPRPRPHSGPRP")
"class 1"
>>> cat("RRIRCRPPRLPRPRPRPDPIPRP")
"class 0"
>>> cat("RRIRERPPRLPRPRPRPFVDPRP")
"class 0"
>>> cat("RRIRIRPPRLPRPRPRPEASPRP")
"class 1"
>>> cat("RRIRTRPPRLPRPRPRPPAGPRP")
"class 1"
>>> cat("RRIRNRPPRLPRPRPRPWIFPRP")
"class 0"
>>> cat("RRIRWRPPRLPRPRPRPVRQPRP")
"class 1"
>>> cat("RRIRARPPRLPRPRPRPCHKPRP")
"class 0"
>>> cat("RRIRYRPPRLPRPRPRPDNSPRP")
"class 0"

In: Answer whether shrunken log2 fold change of RRIRPRPPRLPRPRPRPWPVPRP is greater than or equal to -0.02.
Out: class 1

In: Confirm if shrunken log2 fold change reported for the sequence RRIRYRPPRLPRPRPRPLWGPRP is -0.02 or above.
Out: class 0

In: Hello, I need to know if RRIRARPPRLPRPRPRPKMQPRP has measured shrunken log2 fold change not below -0.02. Thanks!
Out: class 1
